Test system: primary human total T-cells
Assay: T-cell activation, IL-2 secretion, Biological Example 2
Assay type: cell-based
Conditions: anti-CD3 and anti-CD28 co-stimulation, 48 hours, 0.3 μM inhibitor, fold change over baseline
Observation type: fold induction at 0.3 µM

Q: Param item = Cn1cnnc1C[C@]1(c2cccc(N3Cc4c(cc(CN5CCCOC(CO)C5)cc4C(F)(F)F)C3=O)c2)C[C@H](C#N)C1 (stereo partly shown) ; retrieve measured fold induction at 0.3 µM.
Result: ≤ 15

Q: Param item = CC1CCCN(Cc2cc3c(c(C(F)(F)F)c2)CN(c2cccc([C@]4(Cc5nncn5C)C[C@@H](C#N)C4)c2)C3=O)CC1 (stereo partly shown) ; retrieve measured fold induction at 0.3 µM.
Result: 15 to 20

Q: Param item = Cn1cnnc1C[C@]1(c2cccc(N3Cc4c(cc(CN5CCCC(F)(F)CC5)cc4C(F)(F)F)C3=O)c2)C[C@H](C#N)C1 ; retrieve measured fold induction at 0.3 µM.
Result: 15 to 20

Q: Param item = Cn1cnnc1C[C@]1(c2cccc(N3Cc4c(cc(CNC5CC6(C5)CC6(F)F)cc4C(F)(F)F)C3=O)c2)C[C@H](C#N)C1 (stereo partly shown) ; retrieve measured fold induction at 0.3 µM.
Result: 15 to 20

Q: Param item = C[C@@H]1CN(Cc2cc3c(c(C(F)(F)F)c2)CN(c2cccc([C@]4(Cc5nncn5C)C[C@@H](C#N)C4)c2)C3=O)CCO1 ; retrieve measured fold induction at 0.3 µM.
Result: ≤ 15

Q: Param item = Cn1cnnc1C[C@]1(c2cccc(N3Cc4c(cc(CN5CC6CCC(F)(F)C6C5)cc4C(F)(F)F)C3=O)c2)C[C@H](C#N)C1 (stereo partly shown) ; retrieve measured fold induction at 0.3 µM.
Result: > 20

The reported numbers originate from patent US11530229B2.
